- MEASUREMENT PROTOCOL: Tmax in Sprague-Dawley rat at 5 mg/kg, po
- Type: ADME, organism-based
- CONDITION SUMMARY: in vivo
EXPERIMENTAL READOUT: Tmax (h)

{"COMPOUND": "O=C(c1ccc(-c2nc3ccc(F)cc3o2)cc1)N1CCN(C(=O)C2(O)CC2)CC1", "REPORTED": 3}

====

- MEASUREMENT PROTOCOL: Stability in mouse hepatocytes after 1 hr
- Type: ADME, cell-based, Hepatocyte
- CONDITION SUMMARY: read-out: Stability

{"COMPOUND": "O=C(c1ccc(-c2ccc(Cl)cc2F)cc1)N1CCN(C(=O)C2(O)CC2)CC1", "VALUE UNITS": "%", "remaining at 1 h": 84}
{"COMPOUND": "O=C(c1ccc(-c2ccc3cnccc3c2)cc1)N1CCN(C(=O)C2(O)CC2)CC1", "VALUE UNITS": "%", "remaining at 1 h": 1}
{"COMPOUND": "O=C(c1ccc(-c2nc3ccc(F)cc3o2)cc1)N1CCN(C(=O)C2(O)CC2)CC1", "VALUE UNITS": "%", "remaining at 1 h": 97}
{"COMPOUND": "Cn1ncc2ccc(-c3ccc(C(=O)N4CCN(C(=O)C5(O)CC5)CC4)cc3)cc21", "VALUE UNITS": "%", "remaining at 1 h": 77}
